Target: RXR/PPARγ heterodimer (Homo sapiens)
Sequence (P37231 1-505): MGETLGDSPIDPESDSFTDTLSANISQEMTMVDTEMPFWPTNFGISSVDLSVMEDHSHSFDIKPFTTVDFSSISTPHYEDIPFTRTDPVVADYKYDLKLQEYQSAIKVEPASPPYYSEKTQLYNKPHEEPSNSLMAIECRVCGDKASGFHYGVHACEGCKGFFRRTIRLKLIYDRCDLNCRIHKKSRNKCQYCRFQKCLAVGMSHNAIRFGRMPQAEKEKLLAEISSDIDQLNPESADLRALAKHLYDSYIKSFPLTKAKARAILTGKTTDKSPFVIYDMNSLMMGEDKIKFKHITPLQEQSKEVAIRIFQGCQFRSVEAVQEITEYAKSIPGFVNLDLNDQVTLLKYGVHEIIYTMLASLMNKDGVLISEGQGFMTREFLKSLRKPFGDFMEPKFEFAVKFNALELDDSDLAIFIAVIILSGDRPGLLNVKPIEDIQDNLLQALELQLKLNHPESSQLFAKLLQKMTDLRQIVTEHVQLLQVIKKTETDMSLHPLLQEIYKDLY
Sequence (P19793 1-462 partner): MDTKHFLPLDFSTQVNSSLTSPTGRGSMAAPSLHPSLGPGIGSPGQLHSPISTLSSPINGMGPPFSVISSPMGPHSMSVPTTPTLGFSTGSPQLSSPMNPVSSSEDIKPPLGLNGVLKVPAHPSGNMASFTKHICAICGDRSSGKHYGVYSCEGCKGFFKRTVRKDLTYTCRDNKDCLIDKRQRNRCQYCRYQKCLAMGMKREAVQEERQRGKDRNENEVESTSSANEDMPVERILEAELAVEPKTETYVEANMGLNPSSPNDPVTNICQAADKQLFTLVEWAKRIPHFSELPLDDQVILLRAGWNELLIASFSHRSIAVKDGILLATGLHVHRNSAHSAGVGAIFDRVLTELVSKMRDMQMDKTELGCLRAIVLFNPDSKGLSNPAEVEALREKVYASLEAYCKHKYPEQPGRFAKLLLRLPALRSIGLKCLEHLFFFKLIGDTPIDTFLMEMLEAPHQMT
Assay: PPARγ in vitro reporter gene assay (pACOX reporter, PPARγ and RXR plasmids) in L-02 cells
Conditions: 24 h after compound addition, luciferase corrected by GFP, read-out: EC50 (semi-activating activity) activating PPARγ
Experimental Readout: EC50
The answer should read as a number with its unit following.

O=C(c1ccc(F)cc1)c1ccccc1NC(Cc1ccc(OCCn2c3ccccc3c3ccccc32)cc1)C(=O)O (single isomer, unassigned; (-)) [Enantiomer 1]
76 nM

[Q] For the compound shown here, O=C(c1ccc(F)cc1)c1ccccc1NC(Cc1ccc(OCCn2c3ccccc3c3ccccc32)cc1)C(=O)O (single isomer, unassigned; (+)) [Enantiomer 2] , give the reported EC50.
[A] 2710 nM
